Reported values of FACS signal for individual entries
tgt: T1, human CLDN6, endogenously expressed on cancer cell lines (human, UniProt P56747 1-220)
T1 construct: also called Endogenous CLDN6+; CLDN6 on ARK2, OVCA429, UMUC4 cells
T1 sequence: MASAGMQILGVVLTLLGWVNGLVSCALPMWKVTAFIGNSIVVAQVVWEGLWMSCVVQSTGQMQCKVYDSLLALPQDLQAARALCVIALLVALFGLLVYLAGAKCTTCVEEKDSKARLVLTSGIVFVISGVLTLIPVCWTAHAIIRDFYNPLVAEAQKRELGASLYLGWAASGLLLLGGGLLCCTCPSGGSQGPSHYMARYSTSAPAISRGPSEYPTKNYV
measurement.notes: FACS, ARK2 cells, 0.3 ug Ab
value.kind: FACS signal

binder	value
AB1-8 (antibody, V domains shown, Humanized; also called humanized AB 1-8) VH: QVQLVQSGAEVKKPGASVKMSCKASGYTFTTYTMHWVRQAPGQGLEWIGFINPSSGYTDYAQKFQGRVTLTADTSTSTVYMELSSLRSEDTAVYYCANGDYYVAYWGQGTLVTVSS VL: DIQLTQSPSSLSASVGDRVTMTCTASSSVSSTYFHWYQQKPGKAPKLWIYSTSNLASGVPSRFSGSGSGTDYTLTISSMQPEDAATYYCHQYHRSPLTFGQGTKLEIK	5810
AB18-chim (antibody, V domains shown, Parental antibody prior to humanization ('chim'); also called pre-humanized form of AB18) VH: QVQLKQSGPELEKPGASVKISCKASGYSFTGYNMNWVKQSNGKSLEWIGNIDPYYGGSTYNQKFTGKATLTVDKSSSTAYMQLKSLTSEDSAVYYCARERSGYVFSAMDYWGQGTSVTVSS VL: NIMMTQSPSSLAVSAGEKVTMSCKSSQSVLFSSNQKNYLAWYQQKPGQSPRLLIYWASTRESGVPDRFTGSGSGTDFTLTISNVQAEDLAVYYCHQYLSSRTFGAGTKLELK	3440
